Kindly state pIC50 for each of the entries shown.
# ASSAY_TARGET: Thioredoxin reductase 1, cytoplasmic (Rattus norvegicus)
# Sequence (O89049 whole entry): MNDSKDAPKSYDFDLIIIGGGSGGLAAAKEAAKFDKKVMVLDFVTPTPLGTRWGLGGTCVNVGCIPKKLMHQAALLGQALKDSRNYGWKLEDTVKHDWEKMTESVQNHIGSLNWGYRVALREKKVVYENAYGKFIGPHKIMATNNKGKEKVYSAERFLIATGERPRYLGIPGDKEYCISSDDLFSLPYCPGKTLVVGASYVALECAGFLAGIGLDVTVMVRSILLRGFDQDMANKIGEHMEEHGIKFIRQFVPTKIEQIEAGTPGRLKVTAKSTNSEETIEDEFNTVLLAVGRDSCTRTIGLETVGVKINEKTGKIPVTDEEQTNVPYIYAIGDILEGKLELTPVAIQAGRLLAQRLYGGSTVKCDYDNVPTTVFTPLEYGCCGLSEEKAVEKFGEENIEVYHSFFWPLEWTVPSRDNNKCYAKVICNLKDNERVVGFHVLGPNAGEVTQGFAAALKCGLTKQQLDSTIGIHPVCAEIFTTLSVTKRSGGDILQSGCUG
# ASSAY_INFO: Inhibition of TrxR1 in rat liver homogenate preincubated for 5 mins measured by DNTB assay
# Assay type: tissue-based
Numbers only, as −log10 of the molar value.

Below, each entry is followed by its recorded pIC50 result.
[
  {
    "SMILES": "O=c1c2ccccc2[se]n1CCCCCCn1[se]c2ccccc2c1=O",
    "pIC50": 5.78
  },
  {
    "SMILES": "O=c1c2cc(O)ccc2[se]n1CCn1[se]c2ccc(O)cc2c1=O",
    "pIC50": 6.49
  },
  {
    "SMILES": "O=c1c2cc([N+](=O)[O-])ccc2[se]n1CCn1[se]c2ccc([N+](=O)[O-])cc2c1=O",
    "pIC50": 6.24
  },
  {
    "SMILES": "O=c1c2cc(F)ccc2[se]n1CCCn1[se]c2ccc(F)cc2c1=O",
    "pIC50": 6.07
  },
  {
    "SMILES": "O=c1c2cc(Br)ccc2[se]n1CCn1[se]c2ccc(Br)cc2c1=O",
    "pIC50": 5.80
  }
]

query: What pIC50 value was documented for this molecule, Cc1ccc2[se]n(CCCn3[se]c4ccc(C)cc4c3=O)c(=O)c2c1 ?
result: 5.94
